Sourced from PubChem BioAssay

Listed here: items and their measured composite z-score.
# tgt: Torsin-1A (Homo sapiens)
# experiment-description: small-molecule binders of mutant TOR1A in lysate, primary screen, cell lysate, small-molecule microarray, COS7 lysate, 635/667 nm fluorescence (AID 1150);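 further: score pools 667 nm emission and signal to noise measuring lysate protein binding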
# settings: COS7 hTOR1A mutant lysate, 635 nm fluorescence, higher = more signal
Keep the answer to the number alone.

Solved entries (count: 5):
compound=COc1ccc(COC(=O)NN=C2C[C@@H](O)[C@@H](O)[C@@H]3[C@@H]4C(=O)N(c5ccc(F)cc5F)C(=O)[C@@H]4CC[C@H]23)cc1 meas_value=0.627
compound=O=C1C[C@@H](O)[C@@H](O)[C@@H]2[C@@H]3C(=O)N(C[C@@H]4CCCO4)C(=O)[C@@H]3CC[C@H]12 meas_value=0.068
compound=CO[C@H]1COC(=O)[C@H](C)NC(=O)CC=C[C@@H](C)[C@H](OC)COC(=O)[C@@H](OCc2ccccc2)C=C[C@@H]1C meas_value=-0.0163
compound="C[C@H]1CC[C@H]2C(=O)OC(CO)CN2[C@@H]1c1ccc(Br)cc1 (stereo partly specified)" meas_value=0.002
compound="COCCNC(=O)OCC1CCCC2(CC(OC(=O)NCc3ccc4c(c3)OCO4)CC(CCC(=O)N[C@@H](C)C(=O)OC)O2)O1 (stereo partly specified)" meas_value=0.551

Query: composite z-score; subject: CCCCC#C[C@@H]1C=C[C@H](Oc2ccc(C(=O)OC)cc2)[C@@H](COC(=O)OCC)O1
0.358

Query: composite z-score; subject: CCCNC(=O)OC[C@H]1O[C@H](c2ccccc2)C=C[C@@H]1Oc1ccc(OC)cc1
0.144

Query: composite z-score; subject: COc1ccc(O[C@H]2C=C[C@@H](c3ccccc3)O[C@@H]2CON=C2[C@H]3CCn4c(=O)n(-c5ccccc5)c(=O)n4[C@H]3[C@H](O)[C@@H]3O[C@H]23)cc1
0.066

Query: composite z-score; subject: C[C@@H]1C=CCC(=O)OC[C@H]2O[C@@H](C=C[C@@H]2O)[C@H](C)C=CCC(=O)OC1
1.98

Query: composite z-score; subject: C[C@@H]1CC[C@H]2C(=O)O[C@@H](Cc3ccccc3)CN2[C@H]1c1ccc(Br)cc1
0.533

Query: composite z-score; subject: CCc1cc2c(nc1CC)CCN(CCC(C)=NOC[C@H]1O[C@H](c3ccccc3)C=C[C@@H]1Oc1ccc(OC)cc1)C2
0.274

Query: composite z-score; subject: COC(=O)[C@@H]1CC[C@H](C)[C@@H](c2ccc(C)cc2)N1C(=O)c1ccc(C=NOC[C@@H](C)[C@H](OCc2ccccc2)C(C)C)cc1
0.537

Query: composite z-score; subject: CO[C@H]1COC(=O)CCC[C@@H](C)[C@H](OC)COC(=O)[C@@H]2CCCN2C(=O)CC=C[C@@H]1C
1.05

Query: composite z-score; subject: C=Cc1ccc([C@H]2N[C@H](C(=O)O)CC[C@@H]2C)cc1
0.307

Query: composite z-score; subject: COC(=O)[C@@H]1CC[C@H](C)[C@@H](c2ccc(C)cc2)N1C(=O)c1ccc(C=NOCC[C@@H]2C=C[C@H](OC(C)=O)[C@@H](COC(C)=O)O2)cc1
0.481

Query: composite z-score; subject: CCOC(=O)NN=C1C[C@@H](O)[C@@H](O)[C@@H]2[C@@H]3C(=O)N(Cc4ccc5c(c4)OCO5)C(=O)[C@@H]3CC[C@H]12
-0.282

Query: composite z-score; subject: COC(=O)[C@H](C)NC(=O)CCC1CC(OC(=O)NCc2ccc3c(c2)OCO3)CC2(CCCC(COC(=O)NCC3CCCCC3)O2)O1 (stereo partly specified)
0.433

Query: composite z-score; subject: CCOC(=O)CCN1C(=O)[C@H]2[C@H]3[C@H](O)[C@H](O)CC(=NOCC(C)C)[C@H]3CC[C@H]2C1=O
-0.5

Query: composite z-score; subject: COc1ccc(O[C@@H]2[C@H](O)CO[C@@H]2C=Cc2ccccc2)cc1
0.55

Query: composite z-score; subject: CCOC(=O)[C@H](Cc1ccccc1)NC(=O)CCC1CC(OC(=O)NCc2ccc3c(c2)OCO3)CC2(CCCC(COC(=O)NCCC(C)C)O2)O1 (stereo partly specified)
0.418

Query: composite z-score; subject: CCOC(=O)[C@H](CC(C)C)NC(=O)CCC1CC(OC(=O)NCc2ccc3c(c2)OCO3)CC2(CCCC(COC(=O)NCC3CCCCC3)O2)O1 (stereo partly specified)
0.392
